The measurements presented in this section are drawn from paper PMC11995724.

experiment: in vitro; conditions: human, hek293t cells
Our labelling divides records by viability at 48 h, 25 µM into ranges: c1 = under 70%, c2 = from 70% up to 90%, c3 = 90% and over

**Q:** Which class does C=CC(=O)N1CCC(C(=O)N2CCCC(C)(CC)C2)CC1 (stereo not shown) fall in?
**A:** c1

**Q:** Also need "Cc1cc(C(=O)CCl)c(C)n1Cc1cccs1" , thanks.
**A:** c3

**Q:** Also need "O=C(CCl)NCc1ccc(C(=O)N2CCCC2)cc1" , thanks.
**A:** c3

Further cases:
**Q:** Which class does CC(Cl)C(=O)N(C)CC(=O)Nc1ccccc1C(F)(F)F (stereo not shown) fall in?
**A:** c2

**Q:** Also need C=CC(=O)NCCN1CCOCC1C (stereo not shown) , thanks.
**A:** c2

**Q:** Also need "C=CC(=O)N1CCC(C(=O)Nc2[nH]nc(C(F)(F)F)c2C)CC1" , thanks.
**A:** c3

**Q:** Also need "CCNC(=O)C(C#N)=Cc1ccc(OC(F)F)cc1" , thanks.
**A:** c2

**Q:** Also need CC1CSc2ccc(Cl)cc2N(C(=O)CCl)C1 (stereo not shown) , thanks.
**A:** c1

**Q:** Also need C=CC(=O)NC1CCN(Cc2ccccc2)C1 (stereo not shown) , thanks.
**A:** c3
